test: AlphaScreen signal interference counter-screen, dose response, artefact control, biochemical, cherry-picked samples, luminescence (AID 720494); details: series mostly up to 12 µM
This is one part of the list. Active and inactive are the calls of the source. No cut-off is given here; in the data, nearly all actives have AC50 up to about 14 µM.
The reply should be one of these categories: y (active), n (inactive)

Some solved entries appear below for comparison.
• CCN(CC)CCOc1ccc2c(c1)C(=NNC(=O)c1ccccn1)c1cc(OCCN(CC)CC)ccc1-2 = n
• COc1ccc(N2CCN(C3CCCCC3NS(=O)(=O)c3ccccc3)CC2)cc1 (stereo unspecified) = n
• COc1ccc2c(c1)c(=Cc1ccc(N(C)C)cc1)c1cc(-c3ccccc3)[n+](C)n12 = y
• CN(C)CCNC(=O)c1cccc(-c2cnc3c(NC=O)cc(-c4cccc(C(F)(F)F)c4)cn23)c1 = n
• COc1ccc(-c2ccc3[nH]c4c(c3c2)CCN2C[C@H]3[C@H](C)ON(C)[C@H]3C[C@@H]42)cc1 = n

Just curious, what result did O=C(NCCc1cccc(F)c1)C1CCCN(c2nc3ccccc3s2)C1 (stereo unspecified) get here?
n
